Could you please report measured pKd for the items listed next?
# TARGET: DLG2_3, Q15700
# ASSAY SUMMARY: holdup assay
# Design: key: below the threshold = too weak to quantify, mostly under pKd 3.1 to 4
# TEST SETTINGS: plain residues with an end cap or a label only (N-terminal biotin on a linker: ttds)
One number for each entry.

// known answers, use as guide
INSERT INTO results (binder, parameter, reading) VALUES
  ('EMDRRPATVV [PLCB4, Q15147]', 'pKd', 3.86),
  ('RHTTSTETAV [HPV30-E6, P36809]', 'pKd', 4.79);

Lab note: each binder below needs its pKd filled in.
1. VDFPPKESSL [ACVR2A, P27037]
2. PVRVCEETSL [OTULIN, Q96BN8]
3. RLQRRRETQV [HPV18-E6, P06463]
4. SKPTRRETEV [HPV35-E6, P27228]
5. SSLQSLETSV [ATP2B4, P23634]

result:
1. 3.75
2. 3.95
3. 5.06
4. 5.31
5. 4.88

Lab note: each binder below needs its pKd filled in.
1. RPLPRKVSQL [DOCK4, Q8N1I0]
2. QRQARSETLV [HPV59-E6, Q81964]
3. SGSRPSATVV [HPV73-E6, Q82005]
4. EVVHTPETSV [SLC16A3, O15427]
5. RLPKIKETTV [FRMPD4, Q14CM0]

result:
4.17
4.84
3.61
4.35
5.15
